Where do the numbers come from? From patent US9359351B2.

# Test system: influenza A virus (IAV) A/Aichi/2/68 (H3N2)
# testDescription: microbe, parasite or virus in culture
# Assay type: cell-based, influenza A virus A/Aichi/2/68 (H3N2) on MDCK cells
# cond: H3N2, MDCK, 48 h, read-out: CPE IC50
readoutName: IC50

- molecule: "CC(C)N1CCn2c(CNC(=O)c3cccc(NC(=O)c4n[nH]c5ncccc45)c3)cc(=O)c(O)c2C1=O [drawing 28]"
  readoutName: "IC50"
  recordedResult: "> 50 µM"
- molecule: "CC(C)N1CCn2c(CNC(=O)c3n[nH]c4ncccc34)cc(=O)c(O)c2C1=O"
  readoutName: "IC50"
  recordedResult: "> 50 µM"
- molecule: "CC(C)[C@H](Nc1nc(-c2n[nH]c3ncc(F)cc23)ncc1F)C(=O)NCc1cc(=O)c(O)c2n1CCN(C(C)C)C2=O"
  readoutName: "IC50"
  recordedResult: "> 50 µM"
- molecule: "CC(C)N1CCn2c(CNC(=O)CC(Nc3nc(-c4n[nH]c5ncc(F)cc45)ncc3F)C3CC3)cc(=O)c(O)c2C1=O (centres unmarked)"
  readoutName: "IC50"
  recordedResult: "48 µM"
- molecule: "CC(C)N1CCn2c(CNC(=O)[C@H](Cc3cccc(Cl)c3)NC(=O)c3cccn4c(=O)[nH]nc34)cc(=O)c(O)c2C1=O"
  readoutName: "IC50"
  recordedResult: "31.2 µM"
- molecule: "CC(C)N1CCn2c(COCCOc3nccc4[nH]ncc34)cc(=O)c(O)c2C1=O"
  readoutName: "IC50"
  recordedResult: "> 50 µM"

For every item in the list below, what is its measured IC50?
1. CC(C)N1CCn2c(CNc3nccc4[nH]ncc34)cc(=O)c(O)c2C1=O
2. CC(C)N1CCn2c(CNC(=O)CCCCCNc3nc(-c4n[nH]c5ncc(F)cc45)ncc3F)cc(=O)c(O)c2C1=O

["> 50 µM", "15 µM"]

---

# system: whole RNP complex, IAV strain A/PR/8/34 (Influenza A virus, UniProt P03428+P03433)
# testDescription: biochemical
readoutName: IC50 (µM)
Numbers only, in µM.

Worked cases, answers included:
- compound: "CC(C)N1CCn2c(CNC(=O)CC(NC(=O)c3c[nH]c4ncc(C5CC5)nc34)C3CC3)cc(=O)c(O)c2C1=O (stereo not shown)"
  IC50 [µM]: 0.14
- compound: "CC(C)[C@@H](CC(=O)NCc1cc(=O)c(O)c2n1CCN(C(C)C)C2=O)Nc1nc(C2=CN3C(=O)N=NC3C=C2)ncc1F (stereo partly shown)"
  IC50 [µM]: 8.15
- compound: "CC(C)N1CCn2c(CNC(=O)C[C@H](NC(=O)c3c[nH]c4ncc(C5CC5)nc34)c3ccccc3)cc(=O)c(O)c2C1=O"
  IC50 [µM]: 1.53
- compound: "CC(C)N1CCn2c(CNC(=O)[C@H](NC(=O)c3c[nH]c4ncc(C5CC5)nc34)C3CC3)cc(=O)c(O)c2C1=O"
  IC50 [µM]: 0.22
- compound: "CC(C)N1CCn2c(CNC(=O)CCCCCNc3nc(C4=CN5C(=O)N=NC5C=C4)ncc3F)cc(=O)c(O)c2C1=O (stereo not shown)"
  IC50 [µM]: 5.35

I'd like to know its IC50. The compound in question is CC(C)N1CCn2c(CNC(=O)C3(NC(=O)c4c[nH]c5ncc(C6CC6)nc45)CCCCC3)cc(=O)c(O)c2C1=O
0.38
